Data credit: patent US20100291106A1

# assayed_system: T1, cynomolgus complement C3b protein (cynomolgus monkey (Macaca fascicularis))
# T1 construct: also called cyno C3b; cynoC3b
# assay_protocol: SPR (Biacore T100), C3b captured by anti-C3d antibody, IgG as analyte, 1:1 model
measured_endpoint: koff (s⁻¹)
Quick reminder: number only, in s⁻¹, skip the unit.

Measured koff of MOR09556 IgG (antibody, V domains shown, Germlined human IgG1 with leucines 234 and 235 changed to alanines, kappa; also called antibody 9556) VH: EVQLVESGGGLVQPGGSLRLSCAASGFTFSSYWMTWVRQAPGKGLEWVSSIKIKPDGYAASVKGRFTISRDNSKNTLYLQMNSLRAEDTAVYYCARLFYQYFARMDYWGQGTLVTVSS VL: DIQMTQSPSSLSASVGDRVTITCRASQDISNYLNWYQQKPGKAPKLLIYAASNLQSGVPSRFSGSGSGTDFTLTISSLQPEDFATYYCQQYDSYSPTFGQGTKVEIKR : 4.67e-05

// sample MOR09612 IgG (antibody, V domains shown, Germlined human IgG1 with leucines 234 and 235 changed to alanines, kappa; also called antibody 9612) VH: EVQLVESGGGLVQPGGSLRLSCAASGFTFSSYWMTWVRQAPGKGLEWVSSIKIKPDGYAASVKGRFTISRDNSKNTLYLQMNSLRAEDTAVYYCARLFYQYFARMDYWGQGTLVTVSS VL: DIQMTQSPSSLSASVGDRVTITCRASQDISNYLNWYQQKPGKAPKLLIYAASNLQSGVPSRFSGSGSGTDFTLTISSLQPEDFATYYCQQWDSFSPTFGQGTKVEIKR , its koff was 8.67e-05

More entries:
The recorded koff for MOR09611 IgG (antibody, V domains shown, Germlined human IgG1 with leucines 234 and 235 changed to alanines, kappa; also called antibody 9611) VH: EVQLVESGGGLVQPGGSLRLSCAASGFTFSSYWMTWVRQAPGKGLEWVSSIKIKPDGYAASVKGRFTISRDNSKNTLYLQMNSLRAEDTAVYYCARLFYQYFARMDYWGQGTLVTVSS VL: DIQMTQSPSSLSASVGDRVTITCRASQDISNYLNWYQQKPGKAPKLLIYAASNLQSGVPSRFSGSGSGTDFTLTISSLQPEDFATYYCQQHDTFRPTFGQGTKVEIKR is 0.000128
